We begin with a simple list: items and their reported drug sensitivity score.
Tested on: Vero E6
Experiment: drug sensitivity score (DSS) for viability; higher = more toxic; extreme values may be limits of the assay
Conditions: 72 h
Measurement name: drug sensitivity score

> print(dat)
                                    compound        measurement.name  reported.measurement
 1  CC(C)C[C@H](NC(=O)[C@H](CCc1ccccc1)NC(=O)CN1CCOCC1)C(=O)N[C@@H](Cc1ccccc1)C(=O)N[C@@H](CC(C)C)C(=O)[C@@]1(C)CO1  drug sensitivity score                  22.6
 2                 COc1oc(=O)c2cc(N)ccc2c1Cl  drug sensitivity score                     0
 3          CN(C)NC(=O)CCC(=O)O [daminozide]  drug sensitivity score                     0
 4  COc1ccc2cc(OCC3(C(=O)O)CN(C(=O)c4ccc(F)cc4)C3)ccc2c1  drug sensitivity score                     0
 5         COc1ccc2nc3ccc(Cl)cc3c(SCCCN)c2c1  drug sensitivity score                     0
 6  CC1(C)C(=O)N(c2ccc(C#N)c(C(F)(F)F)c2)C(=O)N1CCCCO  drug sensitivity score                     0
 7  CC(C)(C)c1cc(NC(=O)Nc2ccc(-c3cn4c(n3)sc3cc(OCCN5CCOCC5)ccc34)cc2)no1  drug sensitivity score                     0
 8  CC[C@]12CCCN3CCc4c(n(c5ccccc45)C(=O)C1)[C@@H]32  drug sensitivity score                   0.4
 9  CCCCCOc1c(OC)ccc2cc(C(=O)NCc3ccc4c(c3)OCO4)c(=O)[nH]c12  drug sensitivity score                     0
10  C[N+]1(C)[C@@H]2C[C@@H](OC(=O)C(O)(c3cccs3)c3cccs3)C[C@H]1[C@@H]1O[C@@H]12  drug sensitivity score                     0
11                 Cc1ccc(O)c(N=Nc2ccccc2)n1  drug sensitivity score                     0
12                     Oc1c(I)cc(I)c2cccnc12  drug sensitivity score                   1.5
13  CCOC(=O)Nc1ccc2c(c1)N(C(=O)CCN1CCOCC1)c1ccccc1S2  drug sensitivity score                     0
14  CN1CCCN(C(c2ccccc2)c2ccc(Cl)cc2)CC1 (stereo not drawn)  drug sensitivity score                     0
15        O=C(N[C@H]1CN2CCC1CC2)c1ccc(Cl)cc1  drug sensitivity score                     0
16  CCN1CCC[C@H]1CNC(=O)c1c(OC)ccc(Br)c1OC [remoxipride]  drug sensitivity score                     0
17  CCCCCCCCCCCCC/C=C/[C@@H](O)[C@@H](N)CO[P@](=O)(O)OCC[N+](C)(C)C  drug sensitivity score                     0
18  CC[C@@](C)(Nc1ccnc(-c2c[nH]c3ncccc23)n1)C(=O)NCC(F)(F)F  drug sensitivity score                     0
